For each of the variants below, state its normalized RNA/DNA level without ligand (log10).
B1: library; a variant is named by its letters at N, in order (parent)
chain: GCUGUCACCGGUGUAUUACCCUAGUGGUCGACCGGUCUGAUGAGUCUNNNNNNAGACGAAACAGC

Variants of: B1
Experiment: normalized RNA/DNA level without ligand (relative to sTRSVctl = 100) (log10 (% of sTRSVctl)); ligand: hypoxanthine (xanthine aptamer); higher = less ribozyme self-cleavage, higher mRNA level
Conditions: HEK293T, reporter: mCherry (pCS4076), ligand present: no

Take a look at these entries with their results.
| variant | recorded-result |
| --- | --- |
| UAGCGU | 1.46 |
| CUAGUU | 1.92 |
| CGGGUA | 1.82 |
| AAAAUU | 1.86 |
| CGCACG | 1.87 |

Hey, can you go through the list below and give me normalized RNA/DNA level without ligand (log10) for every item?
1. AGCCCC
2. GCAACU
3. AUUGAC
4. GAACCA
5. AGCGAA

## Output
1.91
1.96
1.82
1.82
1.69

Look up normalized RNA/DNA level without ligand (log10) for the entries below, preserving their order.
1. GGUAUA
2. GCCACA

## Output
1: 1.83; 2: 1.87

// data source = the supplement of paper PMC6757056
